- settings: in ethanol, 323.15 K
property: solubility (mole fraction)

[[record]]
line_notation = "C1=Cc2cccc3cccc1c23"
obs_value = 0.0296


###

- settings: in ethanol, 298.2 K
property: solubility (mole fraction)

[[record]]
line_notation = "C1=Cc2cccc3cccc1c23"
obs_value = 0.0108


###

- settings: in ethanol, 288.25 K
property: solubility (mole fraction)

[[record]]
line_notation = "C1=Cc2cccc3cccc1c23"
obs_value = 0.00709


###

- settings: in toluene, 307.95 K
property: solubility (mole fraction)

[[record]]
line_notation = "C1=Cc2cccc3cccc1c23"
property = "solubility (mole fraction)"
obs_value = 0.256


###

- settings: in ethanol, 318.25 K
property: solubility (mole fraction)

[[record]]
line_notation = "C1=Cc2cccc3cccc1c23"
property = "solubility (mole fraction)"
obs_value = 0.0245


###

- settings: in toluene, 283.33 K
property: solubility (mole fraction)

[[record]]
line_notation = "C1=Cc2cccc3cccc1c23"
obs_value = 0.122


###

- settings: in isopropanol, 278.3 K
property: solubility (mole fraction)

[[record]]
line_notation = "C1=Cc2cccc3cccc1c23"
obs_value = 0.00469


###

- settings: in isopropanol, 298.07 K
property: solubility (mole fraction)

[[record]]
line_notation = "C1=Cc2cccc3cccc1c23"
obs_value = 0.012


###

- settings: in n-butanol, 293.25 K
property: solubility (mole fraction)

[[record]]
line_notation = "C1=Cc2cccc3cccc1c23"
property = "solubility (mole fraction)"
obs_value = 0.019


###

- settings: in n-butanol, 303.15 K
property: solubility (mole fraction)

[[record]]
line_notation = "C1=Cc2cccc3cccc1c23"
obs_value = 0.029


###

- settings: in ethanol, 313.05 K
property: solubility (mole fraction)

[[record]]
line_notation = "C1=Cc2cccc3cccc1c23"
obs_value = 0.0197


###

- settings: in toluene, 318.3 K
property: solubility (mole fraction)

[[record]]
line_notation = "C1=Cc2cccc3cccc1c23"
obs_value = 0.346


###

- settings: in n-butanol, 298.25 K
property: solubility (mole fraction)

[[record]]
line_notation = "C1=Cc2cccc3cccc1c23"
property = "solubility (mole fraction)"
obs_value = 0.0237


###

- settings: in toluene, 323.2 K
property: solubility (mole fraction)

[[record]]
line_notation = "C1=Cc2cccc3cccc1c23"
property = "solubility (mole fraction)"
obs_value = 0.398


###

- settings: in isopropanol, 288.33 K
property: solubility (mole fraction)

[[record]]
line_notation = "C1=Cc2cccc3cccc1c23"
obs_value = 0.0077


###

- settings: in isopropanol, 323.25 K
property: solubility (mole fraction)

[[record]]
line_notation = "C1=Cc2cccc3cccc1c23"
property = "solubility (mole fraction)"
obs_value = 0.0372


###

- settings: in isopropanol, 308.05 K
property: solubility (mole fraction)

[[record]]
line_notation = "C1=Cc2cccc3cccc1c23"
obs_value = 0.0189


###

- settings: in ethanol, 293.25 K
property: solubility (mole fraction)

[[record]]
line_notation = "C1=Cc2cccc3cccc1c23"
obs_value = 0.00891


###

- settings: in isopropanol, 293.2 K
property: solubility (mole fraction)

[[record]]
line_notation = "C1=Cc2cccc3cccc1c23"
obs_value = 0.00967


###

- settings: in toluene, 293.15 K
property: solubility (mole fraction)

[[record]]
line_notation = "C1=Cc2cccc3cccc1c23"
obs_value = 0.167

